# target system: T1, cynoCD46-His (cynomolgus, UniProt A0A2K5WCL8 35-328)
# T1 construct: extracellular domain; Immobilised by amine coupling on the SPR chip; not shown: His tag
# T1 sequence: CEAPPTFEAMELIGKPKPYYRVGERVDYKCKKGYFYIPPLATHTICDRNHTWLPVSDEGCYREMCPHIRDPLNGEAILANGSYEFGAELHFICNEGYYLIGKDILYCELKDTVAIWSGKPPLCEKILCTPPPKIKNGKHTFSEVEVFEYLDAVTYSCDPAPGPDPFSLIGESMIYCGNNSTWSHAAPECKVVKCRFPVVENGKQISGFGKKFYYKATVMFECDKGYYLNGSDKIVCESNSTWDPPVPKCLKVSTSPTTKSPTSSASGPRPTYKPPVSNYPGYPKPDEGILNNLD
# assay remarks: SPR, cynoCD46-His immobilised, antibody as analyte, pH 6.5
Assign pKd to each entry below.
Give bare numbers, as −log10 of the molar value.

Examples with answers:
- binder: "Benchmark (BM) BA-133-00-01 (antibody, V domains shown, the killing assays used the ADC form; Conjugation site and payload are not described; also called BM (bench mark)) VH: QVQLQESGPGLVKPSETLSLTCTVSGGSVSSYDISWIRQPPGKGLEWIGVIWTDGGTNYNSAFMSRVTISVDTSKNQFSLKLSSVTAADTAVYYCARVYDGYPWFAYWGQGTLVTVSS VL: DIQMTQSPSSLSASVGDRVTITCRASQGISNYLNWYQQKPGKAPKLLIYYTSSLHSGVPSRFSGSGSGTDFTLTISSLQPEDFATYYCQQYIKLPWTFGGGTKLEIKR"
  result number: 9.11
- binder: "BA-133-04-02 (antibody, V domains shown, also called CPE hit BA133-04-02) VH: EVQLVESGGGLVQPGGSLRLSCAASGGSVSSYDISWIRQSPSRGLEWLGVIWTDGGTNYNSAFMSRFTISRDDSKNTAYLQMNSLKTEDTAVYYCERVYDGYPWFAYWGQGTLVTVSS VL: AIQLTQSPSSLSASVGDRVTITCRASQGIANYLNWYLQKPGQSPQLLIYYTSSLHSGVPDRFSGSGSGTDFTLKISRVEAEDVGVYYCQQYIKLPWTFGQGTKVEIK"
  result number: 9.17
- binder: "BA-133-04-03 (antibody, V domains shown, also called CPE hit BA133-04-03) VH: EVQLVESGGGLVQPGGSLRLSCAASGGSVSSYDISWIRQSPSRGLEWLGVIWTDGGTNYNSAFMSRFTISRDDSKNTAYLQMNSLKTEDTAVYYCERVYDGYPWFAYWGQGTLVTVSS VL: AIQLTQSPSSLSASVGDRVTITCRASQGISNYLNWYLQKPGQSPQLLIYYTSSLFSGVPDRFSGSGSGTDFTLKISRVEAEDVGVYYCQQYIKLPWTFGQGTKVEIK"
  result number: 9.20

List pKd for every entry below, keeping the order given.
1. BAP133-2-02-12 (antibody, V domains shown, also called BAP133-02-02-12; CPE hit BAP133-2-02-12) VH: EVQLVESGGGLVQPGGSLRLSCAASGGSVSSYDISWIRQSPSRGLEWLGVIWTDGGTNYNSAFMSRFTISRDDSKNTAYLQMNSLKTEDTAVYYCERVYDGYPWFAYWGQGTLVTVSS VL: AIQLTQSPSSLSASVGDRVTITCRALQGISNYLNWYQQKPGKAPKLLIYYTSSLHSGVPSRFSGSGSGTEFTLTISSLQPDDFATYYCQQYIKLPWTFGQGTKVEIK
2. BA-133-04-01 (antibody, V domains shown, also called CPE hit BA133-04-01) VH: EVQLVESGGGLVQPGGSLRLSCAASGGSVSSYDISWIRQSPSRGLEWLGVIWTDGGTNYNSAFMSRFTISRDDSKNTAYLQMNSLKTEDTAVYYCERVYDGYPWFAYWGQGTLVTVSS VL: AIQLTQSPSSLSASVGDRVTITCRASQWISNYLNWYLQKPGQSPQLLIYYTSSLHSGVPDRFSGSGSGTDFTLKISRVEAEDVGVYYCQQYIKLPWTFGQGTKVEIK

Response line:
[8.83, 9.25]

List pKd for every entry below, keeping the order given.
1. BA-133-04-04 (antibody, V domains shown, the killing assays used the ADC form; also called CPE hit BA133-04-04) VH: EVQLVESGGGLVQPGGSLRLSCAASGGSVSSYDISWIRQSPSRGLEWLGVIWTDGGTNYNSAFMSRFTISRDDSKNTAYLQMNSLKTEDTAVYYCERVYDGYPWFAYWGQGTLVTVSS VL: AIQLTQSPSSLSASVGDRVTITCRASQGISNYLNWYLQKPGQSPQLLIYYTSSLHEGVPDRFSGSGSGTDFTLKISRVEAEDVGVYYCQQYIKLPWTFGQGTKVEIK
2. BAP133-2-03-03-SL (antibody, V domains shown, the killing assays used the ADC form; also called BAP133-02-03-03-SL; CPE hit BAP133-2-03-03-SL) VH: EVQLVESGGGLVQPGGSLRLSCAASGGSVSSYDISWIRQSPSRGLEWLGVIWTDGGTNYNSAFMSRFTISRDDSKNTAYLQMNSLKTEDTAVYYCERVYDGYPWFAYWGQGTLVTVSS VL: AIQLTQSPSSLSASVGDRVTITCRASQGISNYLNWYLQKPGQSPQLLIYYTSSLHSGVPDRFSGSGSGTDFTLKISRVEAEDVGVYYCQQYIKLPWTFGQGTKVEIK

Response line:
[8.96, 8.63]
